Cited source for all entries: paper PMC11877502

System: human cancer cell lines (HCT116, LoVo, DU145, PC3, HEP3B, HEPG2, MCF7, MDA-MB-231)
Experiment: MTS cytotoxicity assay, panel statements
Assay type: cell-based
Conditions: 48 h, span over compounds and cell lines, read-out: IC50 toward one or more cancer cell lines
Experimental: Stock solutions of extracts and compounds were prepared by dissolving in DMSO (Sigma-Aldrich, no. D2650) at the concentrations of 100 mg/mL and 100 mM for extracts and compounds, respectively. […] Untreated cells were used as a control, while plain culture medium was used as a blank. Viability was determined with MTS Assay (Abcam #ab197010) according to the manufacturer’s instructions. Absorbance at 490 nm was measured with a spectrophotometer (Epoch, BioTek Instruments). […]
observation-type: IC50

molecule | assayed-target | IC50
O=C1/C(=C/c2ccc(O)cc2)COc2cc(O)cc(O)c21 [Compound 4, (E)-4′-O-demethyleucomin] | human cancer cell lines (HCT116, LoVo, DU145, PC3, HEP3B, HEPG2, MCF7, MDA-MB-231) | 8.2 to 37.6 µM
COc1cc(O)cc(/C=C/c2ccc(O)cc2)c1 [Compound 2, pinostilbene] | human cancer cell lines (HCT116, LoVo, DU145, PC3, HEP3B, HEPG2, MCF7, MDA-MB-231) | 8.2 to 37.6 µM
COc1ccc([C@H]2c3c(/C=C/c4ccc(O)cc4)cc(OC)c(C)c3O[C@@H]3Oc4cc(O)cc(O)c4C(=O)[C@@H]32)cc1 [Compound 10, prosperin C] | human cancer cell lines (HCT116, LoVo, DU145, PC3, HEP3B, HEPG2, MCF7, MDA-MB-231) | 8.2 to 37.6 µM

Now for the molecule whose IC50 we want.
Hello, please tell me recorded IC50 for this one: COc1cc(/C=C/c2ccc(O)cc2)cc(O)c1C [Compound 1]
8.2 to 37.6 µM
